Reported pKi values are given for each entry in this list.
# testedTarget: Adenosine receptor A2b (Homo sapiens, UniProt P29275)
# Sequence (P29275 whole entry): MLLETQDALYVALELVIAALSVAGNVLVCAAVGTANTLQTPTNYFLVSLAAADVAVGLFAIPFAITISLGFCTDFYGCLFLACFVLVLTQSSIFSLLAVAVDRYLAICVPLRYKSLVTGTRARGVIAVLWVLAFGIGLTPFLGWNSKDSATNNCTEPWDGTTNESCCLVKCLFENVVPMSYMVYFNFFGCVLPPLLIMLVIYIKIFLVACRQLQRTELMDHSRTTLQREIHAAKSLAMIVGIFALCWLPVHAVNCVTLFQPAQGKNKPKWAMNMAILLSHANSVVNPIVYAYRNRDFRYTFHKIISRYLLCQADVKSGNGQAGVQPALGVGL
# testName: Displacement of [3H]PSB-603 from human A2B receptor expressed in CHO cell membrane
# Type: cell membranes
pKi: −log10 of the molar value.

{"columns": ["molSmiles", "pKi"],
 "data": [
  ["Cn1c(=O)c2c(nc3n2CCN(CCCn2cccc2)C3)n(C)c1=O", "< 6.00"]
]}

Now let's try a different one.
pKi for COc1cccc(C#CCN2CCn3c(nc4c3c(=O)n(C)c(=O)n4C)C2)c1 ?
< 6.00

* * *

# testedTarget: Adenosine receptor A2b (Homo sapiens) (UniProt P29275)
# Sequence (P29275 whole entry): as above
# testName: Displacement of [3H]PSB-603 from human A2B receptor expressed in CHO cell membrane at 1 uM relative to control
# Format: cell membranes
quantity: Activity (%)

{"columns": ["molSmiles", "Activity [%]"],
 "data": [
  ["Cn1c(=O)c2c(nc3n2CCN(CCc2ccc(O)cc2)C3)n(C)c1=O", 8],
  ["COc1cccc2c1CC[C@H](N1CCn3c(nc4c3c(=O)n(C)c(=O)n4C)C1)C2", 9],
  ["COc1cccc(CCN2CCn3c(nc4c3c(=O)n(C)c(=O)n4C)C2)c1", 5],
  ["Cn1c(=O)c2c(nc3n2CCN(CCc2ccc(Cl)cc2)C3)n(C)c1=O", 4],
  ["Cn1c(=O)c2c(nc3n2CCN(c2cccc(Cl)c2)C3)n(C)c1=O", 23]
]}

A. Cn1c(=O)c2c(nc3n2CCN(Cc2csc(-c4cccc(Cl)c4)n2)C3)n(C)c1=O
B. Cn1c(=O)c2c(nc3n2CCN(CCCc2cccc(Br)c2)C3)n(C)c1=O
Pick one, A or B : lowest reported Activity. Indicate which entry you chose by stating its label.
A

A. Cn1c(=O)c2c(nc3n2CCN(c2ccc(Br)cc2)C3)n(C)c1=O
B. Cn1c(=O)c2c(nc3n2CCN(Cc2csc(-c4cccs4)n2)C3)n(C)c1=O
C. COc1cccc(N2CCn3c(nc4c3c(=O)n(C)c(=O)n4C)C2)c1
List the 3 entries from lowest Activity to highest Activity value. Answer with the labels in sequence, matching the requested order.
B, A, C

1. Cn1c(=O)c2c(nc3n2CCN(c2cccc(F)c2)C3)n(C)c1=O
2. Cn1c(=O)c2c(nc3n2CCN(CCc2ccc(Cl)c(Cl)c2)C3)n(C)c1=O
Pick one, 1 or 2 : lowest reported Activity. In your reply, give the label of the chosen option.
1

A. Cn1c(=O)c2c(nc3n2CCN(Cc2csc(-c4ccc(C(F)(F)F)cc4)n2)C3)n(C)c1=O
B. Cn1c(=O)c2c(nc3n2CCN(CCn2cccc2)C3)n(C)c1=O
Could you tell me which of A and B has the lower Activity reading? Answer = label.
B
